Can you tell me Damage to plants, post-emergence for the items I'm about to list?
# Test system: Tomato
# experiment-notes: Herbicidal test, pre- and post-emergence
# Format: in vivo
# test-conditions: 10 kg/ha; scale 0 to 3 (complete kill)

The compound listed as N#Cc1cc([N+](=O)[O-])ccc1Nc1c(Cl)c(F)nc(F)c1Cl [Compound 26] has a reported Damage to plants, post-emergence of 0

The compound listed as N#Cc1c(F)c(F)c(Nc2c(Cl)c(Cl)nc(Cl)c2Cl)c(F)c1F [Compound 42] has a reported Damage to plants, post-emergence of 3

The compound listed as O=[N+]([O-])c1ccc(Nc2c(F)c(F)nc(F)c2Cl)c([N+](=O)[O-])c1 [Compound 38] has a reported Damage to plants, post-emergence of 3

The compound listed as O=[N+]([O-])c1ccc(Nc2c(Cl)c(F)nc(Cl)c2Cl)c(C(F)(F)F)c1 [Compound 44] has a reported Damage to plants, post-emergence of 3

The compound listed as Fc1nc(F)c(Cl)c(Nc2c(Cl)c(F)c(Cl)c(F)c2Cl)c1Cl [Compound 43] has a reported Damage to plants, post-emergence of 3

The compound listed as O=[N+]([O-])c1cc(Cl)cc([N+](=O)[O-])c1Nc1c(Cl)c(F)nc(F)c1Cl [Compound 29] has a reported Damage to plants, post-emergence of 0

The compound listed as O=[N+]([O-])c1ccc(Nc2c(F)c(F)nc(F)c2Cl)c(C(F)(F)F)c1 [Compound 32] has a reported Damage to plants, post-emergence of 3

* * *

# Test system: Maize
# experiment-notes: Herbicidal test, pre- and post-emergence
# Format: in vivo
# test-conditions: 10 lb/acre (11.2 kg/ha); scale 0 (no effect) to 3 (complete kill)
parameter-measured: Damage to plants, post-emergence
Please respond with just the number, no unit label.

The value of Damage to plants, post-emergence recorded for O=[N+]([O-])c1c(F)c(F)c(Nc2c(Cl)c(F)nc(F)c2Cl)c(F)c1F [Compound 12] when tested on Maize reads 1

The value of Damage to plants, post-emergence recorded for Fc1nc(F)c(Cl)c(Nc2c(F)c(F)c(F)c(F)c2F)c1Cl [Compound 10] when tested on Maize reads 0

The value of Damage to plants, post-emergence recorded for N#Cc1c(F)c(F)c(Nc2c(Cl)c(F)nc(F)c2Cl)c(F)c1F [Compound 19] when tested on Maize reads 1

The value of Damage to plants, post-emergence recorded for O=[N+]([O-])c1ccc(Nc2c(Cl)c(F)nc(F)c2Cl)c(C(F)(F)F)c1 [Compound 5] when tested on Maize reads 0

* * *

Can you tell me Damage to plants, pre-emergence for the items I'm about to list?
# Tested on: Kale
# experiment-notes: Further herbicidal test, various rates
# Type: in vivo
# test-conditions: 5 kg/hectare; scale 0 to 5 (complete kill)
Please respond with just the number, no unit label.

The molecule listed as O=[N+]([O-])c1ccc(Nc2c(F)c(F)nc(F)c2F)c(C(F)(F)F)c1 [Compound 28] has a reported Damage to plants, pre-emergence of 5

The molecule listed as Fc1nc(F)c(Cl)c(Nc2c(Cl)c(F)c(Cl)c(F)c2Cl)c1Cl [Compound 43] has a reported Damage to plants, pre-emergence of 1

The molecule listed as O=[N+]([O-])c1ccc(Nc2c(F)c(F)nc(F)c2Cl)c(C(F)(F)F)c1 [Compound 32] has a reported Damage to plants, pre-emergence of 5

The molecule listed as N#Cc1c(F)c(F)c(Nc2c(Cl)c(Cl)nc(Cl)c2Cl)c(F)c1F [Compound 42] has a reported Damage to plants, pre-emergence of 4

The molecule listed as O=[N+]([O-])c1cc(Cl)c(Nc2c(Cl)c(F)nc(F)c2Cl)c(Cl)c1 [Compound 27] has a reported Damage to plants, pre-emergence of 4
